# assay remarks: Half-life in Sprague-Dawley rat at 5 mg/kg, iv by LC-MS/MS analysis
# Format: ADME, organism-based
# experimental context: in vivo
reported property: half-life (h)
Report the value in h with no unit label.

input: What does the record list as half-life for O=C(O)C1=Cc2cc(S(F)(F)(F)(F)F)ccc2OC1C(F)(F)F (stereo unspecified) ?
output: 17.3

* * *

# assay remarks: Tmax in Sprague-Dawley rat at 5 mg/kg, po administered via gastric gavage by LC-MS/MS analysis
# Format: ADME, organism-based
# experimental context: in vivo
reported property: Tmax (h)
API: value field is a number in h; no unit string.

input: Please look up its Tmax: O=C(O)C1=Cc2cc(S(F)(F)(F)(F)F)ccc2OC1C(F)(F)F (stereo unspecified)
output: 7.75

* * *

# measured on: Prostaglandin G/H synthase 2 (Homo sapiens, UniProt P35354)
# Sequence (P35354 whole entry): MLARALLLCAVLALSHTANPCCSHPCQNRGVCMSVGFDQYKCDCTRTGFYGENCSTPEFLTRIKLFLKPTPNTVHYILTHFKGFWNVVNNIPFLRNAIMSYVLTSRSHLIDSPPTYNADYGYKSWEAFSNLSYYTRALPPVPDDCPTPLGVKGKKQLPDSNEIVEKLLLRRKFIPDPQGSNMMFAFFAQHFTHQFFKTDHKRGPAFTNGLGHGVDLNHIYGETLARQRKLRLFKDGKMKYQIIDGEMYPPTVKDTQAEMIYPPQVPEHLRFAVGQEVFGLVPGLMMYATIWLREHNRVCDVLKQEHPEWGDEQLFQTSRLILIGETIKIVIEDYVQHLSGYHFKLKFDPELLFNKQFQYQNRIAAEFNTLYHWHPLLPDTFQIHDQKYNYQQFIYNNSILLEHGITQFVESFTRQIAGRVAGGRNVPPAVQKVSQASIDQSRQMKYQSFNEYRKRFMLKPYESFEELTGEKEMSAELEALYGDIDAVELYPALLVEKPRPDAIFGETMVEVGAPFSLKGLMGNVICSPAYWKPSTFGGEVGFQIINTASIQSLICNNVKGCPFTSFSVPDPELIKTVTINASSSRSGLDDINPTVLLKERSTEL
# assay remarks: Inhibition of recombinant human COX-2 preincubated for 15 mins followed by fluorometric substrate/heme addition for 15 mins subsequently incubated with arachidonic acid for 2 mins by fluorescence analysis
reported property: IC50 (nM)

Example results:
molecule: O=C(O)C1=Cc2cc(S(F)(F)(F)(F)F)cc(Br)c2OC1C(F)(F)F (racemic)
units: nM
IC50: 56
//
molecule: CCc1cc(S(F)(F)(F)(F)F)cc2c1OC(C(F)(F)F)C(C(=O)O)=C2 (stereo not given)
units: nM
IC50: 60
//
molecule: O=C(O)C1=Cc2cc(S(F)(F)(F)(F)F)ccc2O[C@H]1C(F)(F)F
units: nM
IC50: 302

I. Cc1cc(S(F)(F)(F)(F)F)cc2c1OC(C(F)(F)F)C(C(=O)O)=C2 (stereo not given)
II. O=C(O)C1=Cc2cc(S(F)(F)(F)(F)F)cc(Br)c2O[C@@H]1C(F)(F)F
input: Compare I and II and name the one whose reported IC50 is smaller. Identify your pick by its label.
output: II

1. CCCc1cc(S(F)(F)(F)(F)F)cc2c1OC(C(F)(F)F)C(C(=O)O)=C2 (stereo not given)
2. O=C(O)C1=Cc2cc(S(F)(F)(F)(F)F)ccc2OC1C(F)(F)F (stereo not given)
input: Form: Entry with minimum IC50 (choose one): 1 / 2 Field: selected label. Fill in the label of the entry you choose.
output: 2
(2: 18 nM, 1: 46 nM)

* * *

# assay remarks: Cmax in Sprague-Dawley rat at 5 mg/kg, po administered via gastric gavage by LC-MS/MS analysis
# Type: ADME, organism-based
# Design: dose 5 mg/kg, route oral
# experimental context: in vivo
reported property: Cmax (ng/mL)
Provide the reading as a plain figure in ng/mL.

input: So what does the record say about Cmax for O=C(O)C1=Cc2cc(S(F)(F)(F)(F)F)ccc2OC1C(F)(F)F (stereo unspecified) ?
output: 15300

* * *

# assay remarks: Protein binding in human plasma at 10 uM after 5 hrs by rapid equilibrium dialysis
# Type: ADME, cell-free
# experimental context: read-out: PPB (converted)
reported property: fraction unbound at 5 h, 10 µM

compound: O=C(O)C1=Cc2cc(S(F)(F)(F)(F)F)ccc2O[C@@H]1C(F)(F)F
fraction unbound at 5 h, 10 µM: 0.0004

a. O=C(O)C1=Cc2cc(S(F)(F)(F)(F)F)cc(Br)c2O[C@H]1C(F)(F)F
b. O=C(O)C1=Cc2cc(S(F)(F)(F)(F)F)cc(Br)c2O[C@@H]1C(F)(F)F
input: Lowest fraction unbound at 5 h, 10 µM? choose a or b Reply with the label of the item you choose.
output: a
(a: 0.0005, b: 0.0009)

* * *

# assay remarks: Oral bioavailability in Sprague-Dawley rat at 5 mg/kg administered via gastric gavage by LC-MS/MS analysis
# Assay type: ADME, organism-based
# experimental context: in vivo
reported property: bioavailability

input: Could you share which bioavailability value was measured for O=C(O)C1=Cc2cc(S(F)(F)(F)(F)F)ccc2OC1C(F)(F)F (stereo unspecified) ?
output: 100 to 114%

* * *

# measured on: Prostaglandin G/H synthase 2 (Homo sapiens, UniProt P35354)
# assay remarks: Inhibition of recombinant human COX-2 preincubated for 15 mins followed by fluorometric substrate/heme addition for 15 mins subsequently incubated with arachidonic acid for 2 mins by fluorescence analysis
pIC50: −log10 of the molar value.
reported property: pIC50

compound: CCCCc1cc(S(F)(F)(F)(F)F)cc2c1OC(C(F)(F)F)C(C(=O)O)=C2 (centres undefined)
measured on: Prostaglandin G/H synthase 2 (Homo sapiens, UniProt P35354)
reported: 6.72

a. O=C(O)C1=Cc2cc(S(F)(F)(F)(F)F)cc(Br)c2O[C@H]1C(F)(F)F
b. O=C(O)C1=Cc2cc(S(F)(F)(F)(F)F)ccc2O[C@@H]1C(F)(F)F
input: Form field 'greater pIC50' accepts a or b ; which applies? Mark your answer with the label of the selected entry.
output: b

* * *

# assay remarks: AUC (0 to infinity) in Sprague-Dawley rat at 5 mg/kg, po administered via gastric gavage by LC-MS/MS analysis
# Format: ADME, organism-based
# Set-up: dose 5 mg/kg, route oral, time infinity
# experimental context: in vivo
reported property: AUC(0-inf) (µg·h/mL)
// return numeric value only (unit: µg·h/mL, not printed)

input: Value lookup for AUC(0-inf); key = O=C(O)C1=Cc2cc(S(F)(F)(F)(F)F)ccc2OC1C(F)(F)F (stereo unspecified)
output: 414

* * *

Listing of recorded pIC50 by entry.
# measured on: Prostaglandin G/H synthase 2 (Homo sapiens, UniProt P35354)
# assay remarks: Inhibition of recombinant human COX-2 preincubated for 15 mins followed by fluorometric substrate/heme addition for 15 mins subsequently incubated with arachidonic acid for 2 mins by fluorescence analysis
pIC50: −log10 of the molar value.

A selection of reference data follows.
compound: O=CC1=Cc2cc(S(F)(F)(F)(F)F)ccc2OC1C(F)(F)F (stereo not drawn)
reported: < 5.00
--
compound: O=C(O)C1=Cc2ccc(S(F)(F)(F)(F)F)cc2OC1C(F)(F)F (stereo not drawn)
reported: < 5.00

input: What measured pIC50 goes with O=C(O)C1=Cc2cc(S(F)(F)(F)(F)F)cc(Cc3ccccc3)c2OC1C(F)(F)F (stereo not drawn) ?
output: < 4.00

* * *

# assay remarks: Protein binding in human plasma at 10 uM after 5 hrs by rapid equilibrium dialysis
# Assay type: ADME, cell-free
# experimental context: read-out: PPB (converted)
reported property: fraction unbound at 5 h, 10 µM

Illustrative cases are given below, each with its answer.
compound: Cc1cc(S(F)(F)(F)(F)F)cc2c1OC(C(F)(F)F)C(C(=O)O)=C2 (centres undefined)
fraction unbound at 5 h, 10 µM: 0.0005

compound: CCCCc1cc(S(F)(F)(F)(F)F)cc2c1OC(C(F)(F)F)C(C(=O)O)=C2 (centres undefined)
fraction unbound at 5 h, 10 µM: 0.0008

I. O=C(O)C1=Cc2ccc(S(F)(F)(F)(F)F)cc2OC1C(F)(F)F (centres undefined)
II. O=C(O)C1=Cc2cc(S(F)(F)(F)(F)F)ccc2OC1C(F)(F)F (centres undefined)
input: Sorting ascending by fraction unbound at 5 h, 10 µM, which comes first: I or II ? Answer format: the label of the selected item.
output: I
(I: 0.0006, II: 0.001)
